The following compounds are shown together with reported Tumor/muscle uptake ratio values.
system: PSMA-expressing LNCaP tumor xenografts; assay: Ex vivo biodistribution in LNCaP tumor-bearing mice; details: LNCaP tumor-bearing mice, 1 h post injection, mean ± SD, n = 4

| Compound | Tumor/muscle uptake ratio |
| --- | --- |
| N#C[C@@H]1CC(F)(F)CN1C(=O)CNC(=O)c1ccnc2ccc(OCCCc3cn(CC(=O)N[C@@H](CCCCNC(=O)CN4CCN(CC(=O)[O-])CCN(CC(=O)[O-])CCN(CC(=O)[O-])CC4)C(=O)NCC(=O)NC[C@H]4CC[C@H](C(=O)N[C@@H](Cc5c6ccccc6cc6ccccc56)C(=O)NCCCC[C@H](NC(=O)N[C@@H](CCC(=O)O)C(=O)O)C(=O)O)CC4)nn3)cc12.[68Ga+3] [[^68Ga]Ga-AV01017] | 2.35 ± 0.35 |
| N#C[C@@H]1CC(F)(F)CN1C(=O)CNC(=O)c1ccnc2ccc(-c3cn(CC(=O)N[C@@H](CCCCNC(=O)CN4CCN(CC(=O)[O-])CCN(CC(=O)[O-])CCN(CC(=O)[O-])CC4)C(=O)NCC(=O)NC[C@H]4CC[C@H](C(=O)N[C@@H](Cc5c6ccccc6cc6ccccc56)C(=O)NCCCC[C@H](NC(=O)N[C@@H](CCC(=O)O)C(=O)O)C(=O)O)CC4)nn3)cc12.[68Ga+3] [[^68Ga]Ga-AV01030] | 3.25 ± 0.39 |
| N#C[C@@H]1CC(F)(F)CN1C(=O)CNC(=O)c1ccnc2ccc(OCCCN3CCN(C(=O)CN4CCN(CC(=O)[O-])CCN(CC(=O)[O-])CCN(CC(=O)[O-])CC4)CC3)cc12.[68Ga+3] [[^68Ga]Ga-FAPI-04, reference compound] | 2.30 ± 0.79 |
| N#C[C@@H]1CC(F)(F)CN1C(=O)CNC(=O)c1ccnc2ccc(OCc3cn(CC(=O)N[C@@H](CCCCNC(=O)CN4CCN(CC(=O)[O-])CCN(CC(=O)[O-])CCN(CC(=O)[O-])CC4)C(=O)NCC(=O)NC[C@H]4CC[C@H](C(=O)N[C@@H](Cc5c6ccccc6cc6ccccc56)C(=O)NCCCC[C@H](NC(=O)N[C@@H](CCC(=O)O)C(=O)O)C(=O)O)CC4)nn3)cc12.[68Ga+3] [[^68Ga]Ga-AV01038] | 2.52 ± 0.33 |

====

tested on: FAP-expressing HEK293T:hFAP tumor xenografts; assay: Ex vivo biodistribution in HEK293T:hFAP tumor-bearing mice; conditions: 1 h post injection, mean ± SD, n = 4

| Compound | Target | Lungs uptake, %ID/g |
| --- | --- | --- |
| N#C[C@@H]1CC(F)(F)CN1C(=O)CNC(=O)c1ccnc2ccc(OCc3cn(CC(=O)N[C@@H](CCCCNC(=O)CN4CCN(CC(=O)[O-])CCN(CC(=O)[O-])CCN(CC(=O)[O-])CC4)C(=O)NCC(=O)NC[C@H]4CC[C@H](C(=O)N[C@@H](Cc5c6ccccc6cc6ccccc56)C(=O)NCCCC[C@H](NC(=O)N[C@@H](CCC(=O)O)C(=O)O)C(=O)O)CC4)nn3)cc12.[68Ga+3] [[^68Ga]Ga-AV01038] | FAP-expressing HEK293T:hFAP tumor xenografts | 3.83 |
| O=C([O-])CN1CCN(CC(=O)[O-])CCN(CC(=O)NC[C@H]2CC[C@H](C(=O)N[C@@H](Cc3c4ccccc4cc4ccccc34)C(=O)NCCCC[C@H](NC(=O)N[C@@H](CCC(=O)O)C(=O)O)C(=O)O)CC2)CCN(CC(=O)[O-])CC1.[68Ga+3] [[^68Ga]Ga-HTK03041, reference compound] | FAP-expressing HEK293T:hFAP tumor xenografts | 2.43 |
| N#C[C@@H]1CC(F)(F)CN1C(=O)CNC(=O)c1ccnc2ccc(-c3cn(CC(=O)N[C@@H](CCCCNC(=O)CN4CCN(CC(=O)[O-])CCN(CC(=O)[O-])CCN(CC(=O)[O-])CC4)C(=O)NCC(=O)NC[C@H]4CC[C@H](C(=O)N[C@@H](Cc5c6ccccc6cc6ccccc56)C(=O)NCCCC[C@H](NC(=O)N[C@@H](CCC(=O)O)C(=O)O)C(=O)O)CC4)nn3)cc12.[68Ga+3] [[^68Ga]Ga-AV01030] | FAP-expressing HEK293T:hFAP tumor xenografts | 3.02 |

====

tested on: FAP-expressing HEK293T:hFAP tumor xenografts; assay: Ex vivo biodistribution in HEK293T:hFAP tumor-bearing mice; settings: 1 h post injection, mean ± SD, n = 4
Property measured: Large Intestine uptake (%ID/g)

| Molecule | Target | Reported result |
| --- | --- | --- |
| N#C[C@@H]1CC(F)(F)CN1C(=O)CNC(=O)c1ccnc2ccc(OCc3cn(CC(=O)N[C@@H](CCCCNC(=O)CN4CCN(CC(=O)[O-])CCN(CC(=O)[O-])CCN(CC(=O)[O-])CC4)C(=O)NCC(=O)NC[C@H]4CC[C@H](C(=O)N[C@@H](Cc5c6ccccc6cc6ccccc56)C(=O)NCCCC[C@H](NC(=O)N[C@@H](CCC(=O)O)C(=O)O)C(=O)O)CC4)nn3)cc12.[68Ga+3] [[^68Ga]Ga-AV01038] | FAP-expressing HEK293T:hFAP tumor xenografts | 0.99 |

====

tested on: FAP-expressing HEK293T:hFAP tumor xenografts; assay: Ex vivo biodistribution in HEK293T:hFAP tumor-bearing mice; settings: 1 h post injection, mean ± SD, n = 4

| Compound | Thyroid uptake [%ID/g] |
| --- | --- |
| N#C[C@@H]1CC(F)(F)CN1C(=O)CNC(=O)c1ccnc2ccc(OCc3cn(CC(=O)N[C@@H](CCCCNC(=O)CN4CCN(CC(=O)[O-])CCN(CC(=O)[O-])CCN(CC(=O)[O-])CC4)C(=O)NCC(=O)NC[C@H]4CC[C@H](C(=O)N[C@@H](Cc5c6ccccc6cc6ccccc56)C(=O)NCCCC[C@H](NC(=O)N[C@@H](CCC(=O)O)C(=O)O)C(=O)O)CC4)nn3)cc12.[68Ga+3] [[^68Ga]Ga-AV01038] | 6.51 |
| N#C[C@@H]1CC(F)(F)CN1C(=O)CNC(=O)c1ccnc2ccc(-c3cn(CC(=O)N[C@@H](CCCCNC(=O)CN4CCN(CC(=O)[O-])CCN(CC(=O)[O-])CCN(CC(=O)[O-])CC4)C(=O)NCC(=O)NC[C@H]4CC[C@H](C(=O)N[C@@H](Cc5c6ccccc6cc6ccccc56)C(=O)NCCCC[C@H](NC(=O)N[C@@H](CCC(=O)O)C(=O)O)C(=O)O)CC4)nn3)cc12.[68Ga+3] [[^68Ga]Ga-AV01030] | 7.70 |
| O=C([O-])CN1CCN(CC(=O)[O-])CCN(CC(=O)NC[C@H]2CC[C@H](C(=O)N[C@@H](Cc3c4ccccc4cc4ccccc34)C(=O)NCCCC[C@H](NC(=O)N[C@@H](CCC(=O)O)C(=O)O)C(=O)O)CC2)CCN(CC(=O)[O-])CC1.[68Ga+3] [[^68Ga]Ga-HTK03041, reference compound] | 1.38 |
| N#C[C@@H]1CC(F)(F)CN1C(=O)CNC(=O)c1ccnc2ccc(OCCCc3cn(CC(=O)N[C@@H](CCCCNC(=O)CN4CCN(CC(=O)[O-])CCN(CC(=O)[O-])CCN(CC(=O)[O-])CC4)C(=O)NCC(=O)NC[C@H]4CC[C@H](C(=O)N[C@@H](Cc5c6ccccc6cc6ccccc56)C(=O)NCCCC[C@H](NC(=O)N[C@@H](CCC(=O)O)C(=O)O)C(=O)O)CC4)nn3)cc12.[68Ga+3] [[^68Ga]Ga-AV01017] | 10.7 |

====

Tested on: FAP-expressing HEK293T:hFAP tumor xenografts
Test: Ex vivo biodistribution in HEK293T:hFAP tumor-bearing mice
Conditions: 1 h post injection, mean ± SD, n = 4
Procedure: Biodistribution studies were also conducted at 1 h post injection with [^68Ga]Ga-AV01017, [^68Ga]Ga-AV01030, [^68Ga]Ga-AV01038, [^68Ga]Ga-HTK03041, and [^68Ga]Ga-FAPI-04 in HEK293T:hFAP tumor-bearing mice (Figure 6 and Table S5, Supplementary Materials). Tumor uptake values for [^68Ga]Ga-AV01017, [^68Ga]Ga-AV01030, [^68Ga]Ga-AV01038, [^68Ga]Ga-HTK03041, and [^68Ga]Ga-FAPI-04 were 2.99 ± 0.37, 3.69 ± 0.81, 3.64 ± 0.83, 0.62 ± 0.19, and 12.5 ± 2.00 %ID/g, respectively. […]

| Molecule | Pancreas uptake / %ID/g |
| --- | --- |
| N#C[C@@H]1CC(F)(F)CN1C(=O)CNC(=O)c1ccnc2ccc(OCCCN3CCN(C(=O)CN4CCN(CC(=O)[O-])CCN(CC(=O)[O-])CCN(CC(=O)[O-])CC4)CC3)cc12.[68Ga+3] [[^68Ga]Ga-FAPI-04, reference compound] | 0.37 |
| N#C[C@@H]1CC(F)(F)CN1C(=O)CNC(=O)c1ccnc2ccc(OCCCc3cn(CC(=O)N[C@@H](CCCCNC(=O)CN4CCN(CC(=O)[O-])CCN(CC(=O)[O-])CCN(CC(=O)[O-])CC4)C(=O)NCC(=O)NC[C@H]4CC[C@H](C(=O)N[C@@H](Cc5c6ccccc6cc6ccccc56)C(=O)NCCCC[C@H](NC(=O)N[C@@H](CCC(=O)O)C(=O)O)C(=O)O)CC4)nn3)cc12.[68Ga+3] [[^68Ga]Ga-AV01017] | 3.80 |
| O=C([O-])CN1CCN(CC(=O)[O-])CCN(CC(=O)NC[C@H]2CC[C@H](C(=O)N[C@@H](Cc3c4ccccc4cc4ccccc34)C(=O)NCCCC[C@H](NC(=O)N[C@@H](CCC(=O)O)C(=O)O)C(=O)O)CC2)CCN(CC(=O)[O-])CC1.[68Ga+3] [[^68Ga]Ga-HTK03041, reference compound] | 0.71 |
| N#C[C@@H]1CC(F)(F)CN1C(=O)CNC(=O)c1ccnc2ccc(-c3cn(CC(=O)N[C@@H](CCCCNC(=O)CN4CCN(CC(=O)[O-])CCN(CC(=O)[O-])CCN(CC(=O)[O-])CC4)C(=O)NCC(=O)NC[C@H]4CC[C@H](C(=O)N[C@@H](Cc5c6ccccc6cc6ccccc56)C(=O)NCCCC[C@H](NC(=O)N[C@@H](CCC(=O)O)C(=O)O)C(=O)O)CC4)nn3)cc12.[68Ga+3] [[^68Ga]Ga-AV01030] | 3.26 |
| N#C[C@@H]1CC(F)(F)CN1C(=O)CNC(=O)c1ccnc2ccc(OCc3cn(CC(=O)N[C@@H](CCCCNC(=O)CN4CCN(CC(=O)[O-])CCN(CC(=O)[O-])CCN(CC(=O)[O-])CC4)C(=O)NCC(=O)NC[C@H]4CC[C@H](C(=O)N[C@@H](Cc5c6ccccc6cc6ccccc56)C(=O)NCCCC[C@H](NC(=O)N[C@@H](CCC(=O)O)C(=O)O)C(=O)O)CC4)nn3)cc12.[68Ga+3] [[^68Ga]Ga-AV01038] | 3.82 |

Measured values drawn from paper PMC9921851 for this set.
